B1: HDV Ribozyme (parent)
chain: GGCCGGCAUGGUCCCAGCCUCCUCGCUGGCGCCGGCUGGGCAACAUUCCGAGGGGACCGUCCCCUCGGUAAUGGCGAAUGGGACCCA

Variants of: B1
Method description: self-cleavage, relative activity (ratio to wild type); higher = more cleavage; co-transcriptional
Please note: true applies when self-cleavage is 0.1 or greater, and false applies otherwise.

Query: Please tell me: is the variant GGCCGGCAUAGUCCCCGCCUCCUCGCUGGCGCCGGCUGGGCAACAUUCCGAGGGGACCGUCCCCUCGGUAAUGGCGAAUGGGACCCA at or over 0.1 in terms of self-cleavage?
Response: true

Query: Please tell me: is the variant GGCCGGCAUGUUCCCAGCCUCGUCGCUGGCGCCGGCUGGGCAACAUUCCGAGGGGACCGUCCCCUCGGUAAUGGCGAAUGGGACCCA at or over 0.1 in terms of self-cleavage?
Response: false

Query: Please tell me: is the variant GGCCGGGAUGGUCCCAGCCUCCUCGCUGGCGCCGGCUGGGCAACAUUCCGAGGGGACAGUCCCCUCGGUAAUGGCGAAUGGGACCCA at or over 0.1 in terms of self-cleavage?
Response: true

Query: Please tell me: is the variant GGCCGGCAUAGUCCCAGCCUCCUCGCUGGCGCCGGCUAGGCAACAUUCCGAGGGGACCGUCCCCUCGGUAAUGGCGAAUGGGACCCA at or over 0.1 in terms of self-cleavage?
Response: false

Query: Please tell me: is the variant GGCCGGCAUGGUCCCAGCCUCCUCGCUGGCGCCGGCUGGGCAACAUUCCGAGGGGACCGUCCGCUCGGUAAUGGCGAAUGGGACCGA at or over 0.1 in terms of self-cleavage?
Response: true

Query: Please tell me: is the variant GGCCCGCAUGGUCCCAGCCUUCUCGCUGGCGCCGGCUGGGCAACAUUCCGAGGGGACCGUCCCCUCGGUAAUGGCGAAUGGGACCCA at or over 0.1 in terms of self-cleavage?
Response: false

Query: Please tell me: is the variant GGCCGGCAUGGUCCCAGCCUCCUCGCCGGCGCCGGCUGGGCAACAUUCAGAGGGGACCGUCCCCUCGGUAAUGGCGAAUGGGACCCA at or over 0.1 in terms of self-cleavage?
Response: true
